# ASSAY_OVERVIEW: gradient 5% acetonitrile 3 min, to 50% in 2 min, to 85% in 15 min, held 3 min, 100 µL/min
# ASSAY_SETUP: column: Zorbax Extend-C18 2.1 x 50 mm; eluents: water / acetonitrile, 0.1% formic acid
MEASURED_PARAMETER: RP-LC retention time (s)

CCc1ccc(OCc2nc(C)c(C(=O)Nc3nc(-c4ccccc4OC)cs3)s2)cc1: 1310
Cc1ccccc1-c1noc(Cn2c(=O)n(-c3cccc(F)c3)c(=O)c3sccc32)n1: 1030
Cc1cccc(S(=O)(=O)N2CCc3nc(-c4ccc(F)cc4)ncc3C2)c1: 1140
Cc1nc(N)nc(N)c1-c1ccc(Cl)c(Cl)c1: 642
Cc1ccc(-n2cc3c(N4CCCC(C(=O)NC(C)c5ccc(F)cc5)C4)ncnc3n2)cc1 (centres undefined): 741
COc1ccc(-c2csc3c(=O)n(Cc4ccc(F)cc4)cnc23)cc1: 1050
CN(C)c1nc2cc(C(=O)N3CCC4(CC3)OCCO4)sc2n1-c1ccccc1: 647
CCS(=O)(=O)N1CCC(c2noc(-c3ccccc3)n2)CC1: 897

1. O=C(c1ccc2c(c1)OCO2)N1CCN(c2nc(CN3CCCCC3)cs2)CC1
2. CCn1nccc1-c1cccc(-c2noc(-c3ccnc(Cl)c3)n2)c1
Request: Problem: Given the entries 1 and 2 , determine which has the lower reported RP-LC retention time. Kindly state the label of the option you pick.
Result: 1

* * *

# ASSAY_OVERVIEW: gradient 5% acetonitrile 3 min, to 50% in 2 min, to 85% in 15 min, held 3 min, 100 µL/min
# ASSAY_SETUP: column: Zorbax Extend-C18 2.1 x 50 mm; eluents: water / acetonitrile, 0.1% formic acid
MEASURED_PARAMETER: RP-LC retention time (s)

Cc1nc(C(N)=O)nc2ccccc12: 657
O=C(Cc1cccs1)NCc1nnnn1-c1ccc(F)c(F)c1: 711
Cc1cccc(NS(=O)(=O)c2cc(-c3[nH]ncc3C(=O)N3CCOCC3)oc2C)c1: 683

* * *

# ASSAY_OVERVIEW: gradient 5% acetonitrile 3 min, to 50% in 2 min, to 85% in 15 min, held 3 min, 100 µL/min
# ASSAY_SETUP: column: Zorbax Extend-C18 2.1 x 50 mm; eluents: water / acetonitrile, 0.1% formic acid
MEASURED_PARAMETER: RP-LC retention time (s)

CS(=O)(=O)N1CCCC1C(=O)Nc1ccccc1 (stereo not drawn): 690

A. COc1ccc(NC(=O)c2ccc(Cl)s2)c2ccccc12
B. O=C(NCc1cccnc1)c1ccc(CN2CCN(Cc3ccc(F)cc3)C(=O)C2=O)cc1
Request: Identify the entry with the smaller RP-LC retention time: A or B . Lab log: write the label of the selected item as the result.
Result: B

* * *

# ASSAY_OVERVIEW: gradient 5% acetonitrile 3 min, to 50% in 2 min, to 85% in 15 min, held 3 min, 100 µL/min
# ASSAY_SETUP: column: Zorbax Extend-C18 2.1 x 50 mm; eluents: water / acetonitrile, 0.1% formic acid
MEASURED_PARAMETER: RP-LC retention time (s)

Cc1ccccc1CNC(=O)CC1CCN(C(=O)c2[nH]c(C)c(C(=O)OC(C)C)c2C)CC1: 853
NS(=O)(=O)OC[C@@H]1C[C@@H](n2ccc3c(N[C@H]4CCc5ccccc54)ncnc32)C[C@H]1O: 724
O=S(=O)(c1cccs1)N1CCN(c2ncccn2)CC1: 754
CCN1C(=O)C(C)(C(=O)Nc2cc(C)cc(C)c2)Oc2cccnc21 (centres undefined): 982
COc1cccc(CNC(=O)C2(C)CCCN(C(=O)Nc3cc(Cl)c(OC)cc3OC)C2)c1 (centres undefined): 900
O=C(CNC(=O)c1ccc(C(F)(F)F)cc1)Nc1nc2ccccc2[nH]1: 688
Cc1cccc(-c2nnc(-c3nc(NCc4ccco4)c4ccccc4n3)o2)c1: 1010
CS(=O)(=O)N1CCC(OC2CCN(C(=O)Nc3c(F)cccc3F)CC2)CC1: 688
COc1ccccc1-c1nnc(SCC(=O)N2CCc3ccccc32)o1: 839

* * *

# ASSAY_OVERVIEW: gradient 5% acetonitrile 3 min, to 50% in 2 min, to 85% in 15 min, held 3 min, 100 µL/min
# ASSAY_SETUP: column: Zorbax Extend-C18 2.1 x 50 mm; eluents: water / acetonitrile, 0.1% formic acid
MEASURED_PARAMETER: RP-LC retention time (s)

Solved cases below.
Cc1ccc(-n2cc3c(N4CCCC(C(=O)NC(C)c5ccc(C)cc5C)C4)ncnc3n2)cc1 (stereo unspecified): 814
CCc1nc2c(NC(=O)c3ccc(OC)cc3)cccn2n1: 819
CC1CCCCC1Nc1nc(-c2ccc([N+](=O)[O-])cc2)nc2ccccc12 (stereo unspecified): 950
O=C(Nc1ccc(F)cc1F)N1CCC(n2cnc3c(Cl)cccc3c2=O)CC1: 806
Cn1cnc2cc(CNC(=O)C3CCCC3)ccc21: 586
COc1ccc(Cl)cc1NC(=O)NCc1ccnc(N2CCSCC2)c1: 667

I. Cc1ccc2nc(-c3cccc(S(=O)(=O)N4CCOCC4)c3)cn2c1
II. c1ccc(-c2noc(-c3nc(-c4ccccn4)no3)n2)cc1
Request: Hey, between I and II which has a smaller measured RP-LC retention time? Give the chosen item's label as your response.
Result: I
(I: 605 s, II: 958 s)

* * *

# ASSAY_OVERVIEW: gradient 5% acetonitrile 3 min, to 50% in 2 min, to 85% in 15 min, held 3 min, 100 µL/min
# ASSAY_SETUP: column: Zorbax Extend-C18 2.1 x 50 mm; eluents: water / acetonitrile, 0.1% formic acid
MEASURED_PARAMETER: RP-LC retention time (s)

Examples with their reported RP-LC retention time follow.
Cc1oc(-c2ccc(Cl)cc2)nc1Cn1nnc(C(=O)Nc2cc(F)ccc2F)c1C: 1310
CCc1ccc(NS(=O)(=O)c2cc(-c3c(CC)noc3NC(C)=O)ccc2C)cc1: 886
Cc1ccc(/C=C/S(=O)(=O)N2CC(c3nc(-c4ncccn4)no3)C2)cc1: 729
Cn1c(=O)n(CC(=O)N2CCCCC2)c(=O)c2cnc(-c3ccc(Cl)cc3)nc21: 1050
CCn1cc(C2=CCN(S(=O)(=O)c3ccc(F)cc3)CC2)c2cccnc21: 1020
COc1ccc2c(c1)c(N1CCCC1=O)c(C(=O)Nc1ccc(F)cc1)n2C: 952
CCOc1ccccc1-c1noc(-c2cn(C)c3ccc(F)cc3c2=O)n1: 833
COc1cccc(-c2nc3sc(C(=O)N4CCOCC4)c(C)n3c2NC(C)(C)C)c1: 795
COc1ccc(S(=O)(=O)N(C(C)=O)c2ccccc2/C=C/c2cc[n+]([O-])cc2)cc1: 785
CCCNC(=O)N(CC(=O)N1CCc2sccc2C1COc1ccc(C)cc1)CC1CCCO1 (centres undefined): 1000

1. O=S(=O)(Cc1ccccc1Cl)NCCN1CCN(c2ccc(F)cc2)CC1
2. CC1CCN(c2ncc3c(n2)CCC(C(=O)NCCC2=CCCCC2)C3)CC1 (centres undefined)
Request: Lab note: check whether 1 or 2 has the lower measured RP-LC retention time. Reply with the label of the item you choose.
Result: 1
(1: 591 s, 2: 974 s)

* * *

# ASSAY_OVERVIEW: gradient 5% acetonitrile 3 min, to 50% in 2 min, to 85% in 15 min, held 3 min, 100 µL/min
# ASSAY_SETUP: column: Zorbax Extend-C18 2.1 x 50 mm; eluents: water / acetonitrile, 0.1% formic acid
MEASURED_PARAMETER: RP-LC retention time (s)

Cc1ccc(-c2ccc(N3CCN(c4ccccn4)CC3)nn2)cc1S(=O)(=O)N1CCCCCC1: 716
Cc1ccc(-n2c(N3CCCC(C(=O)Nc4ccc(F)cc4)C3)nc3ccsc3c2=O)cc1 (stereo unspecified): 959
Clc1ccccc1-c1nc(N2CCCC2)c2ccccc2n1: 696
Cc1cc(-c2nnc(NC(=O)c3cc(Cl)sc3Cl)o2)n(C)n1: 772
O=c1[nH]cc(S(=O)(=O)N2CCc3ccccc3C2)c(=O)[nH]1: 663
Cc1nc(CC(=O)NCc2ccc(F)c(Cl)c2)sc1C(=O)NC1CC1: 708
Cc1ccc(NC(=O)Cn2nc3cc(-c4ccccc4)nc(C)n3c2=O)c(F)c1: 958
CCCN1C(=O)c2c(C(=O)NCc3cccc(F)c3)ncn2CC1(C)C(=O)NC1CCCC1 (stereo unspecified): 821
O=S(=O)(Nc1ccc(Cl)cc1F)c1c[nH]c2ncccc12: 740
CCOC(=O)Nc1c(Cl)n(C)c(=O)n(C)c1=O: 648
Cc1csc(-c2cc(S(=O)(=O)Nc3ccc(F)c(F)c3)cn2CC(=O)N2CCCC2)n1: 927
CCOC(=O)c1c(C)[nH]c(C(=O)N2CCCC(C(=O)NCc3ccc4c(c3)OCO4)C2)c1C (stereo unspecified): 770
CN1C(=O)CCc2cc(NS(=O)(=O)Cc3ccc(Cl)cc3)ccc21: 788
COc1ccc(C(=O)Cn2nc3n(CC(C)C)c(=O)c4ccccc4n3c2=O)cc1OC: 951
O=C(Cn1ccn2nc(-c3ccccc3)c(CO)c2c1=O)N1CCN(c2ccccc2)CC1: 800
CCn1ncn2cc(S(=O)(=O)Nc3ccc(F)cc3)cc2c1=O: 848
COc1ccc2oc(-c3noc(C(=O)NCCCN4CCCC4)n3)c(C)c2c1: 671
CCOC(=O)C1C(=O)C=C(c2ccc(OC)c(OC)c2)CC1c1cccc(OC)c1OC (stereo unspecified): 923
Cc1ccc(NC(=O)Cn2nc3nc(N4CCCC(C)C4)ccn3c2=O)cc1C (stereo unspecified): 826
O=C(NC1CCCCC1)c1ccc2ccnc(N3CCN(c4ccc(Cl)cc4)CC3)c2c1: 986
Cn1c(C(=O)Nc2ccccc2F)cc2c(=O)oc3ccccc3c21: 919
Cc1ccn2cc(C(=O)NCc3ccccc3F)nc2c1: 628
CC(=O)N1c2ccc(S(=O)(=O)N3CCCC3)cc2CC1C(=O)N1CCN(c2ccccn2)CC1 (stereo unspecified): 609
Cc1cccc(-c2ncccc2CNS(=O)(=O)c2ccccc2C)c1: 725
O=C(NC1CCCC1)C1CCCN(c2nc3ccsc3c(=O)n2Cc2ccccc2)C1 (stereo unspecified): 895
CCN1C(=O)c2cccnc2Sc2cc(NC(=O)c3ccc(F)cc3)ccc21: 832
